Target: T1, Erh1 R23A (S. pombe, UniProt G2TRN4 1-104, R23A)
T1 construct: Erh1, S. pombe, residues 1-104, point mutant made with the MutanBEST kit; source: E. coli BL21 (Gold), purified (Ni-chelating resin, size-exclusion chromatography)
T1 sequence (looked up): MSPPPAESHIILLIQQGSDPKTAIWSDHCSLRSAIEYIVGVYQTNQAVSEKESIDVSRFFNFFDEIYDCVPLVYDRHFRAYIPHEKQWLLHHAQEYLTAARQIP
Assay: ITC; SUMO-tagged Mmi1 peptides titrated into Erh1 in the sample cell; MicroCal iTC200, 293 K; 20 mM Tris-HCl pH 7.5, 150 mM NaCl; single-site binding model
Settings: both partners purified
measured-property: Kd (nM)
The figure you give is taken to be in nM; do not add the unit.

Given item GKYDFSRHCTDYGHSYEWPYFRSLRRES (domain or fragment, S. pombe, UniProt O74958 95-122, looked up, SUMO stands after the His6 tag at the N-terminus; also called Mmi1wt; source: E. coli BL21 (Gold), purified (Ni-chelating resin, size-exclusion chromatography); not shown: SUMO, N-terminal, kept) [SUMO-tagged Mmi1 95-122] , the value recorded as its Kd is 1480
